Biological target: Neuronal acetylcholine receptor; alpha4/beta2 (Rattus norvegicus, UniProt P09483+P12390)
Sequence (P09483 whole entry): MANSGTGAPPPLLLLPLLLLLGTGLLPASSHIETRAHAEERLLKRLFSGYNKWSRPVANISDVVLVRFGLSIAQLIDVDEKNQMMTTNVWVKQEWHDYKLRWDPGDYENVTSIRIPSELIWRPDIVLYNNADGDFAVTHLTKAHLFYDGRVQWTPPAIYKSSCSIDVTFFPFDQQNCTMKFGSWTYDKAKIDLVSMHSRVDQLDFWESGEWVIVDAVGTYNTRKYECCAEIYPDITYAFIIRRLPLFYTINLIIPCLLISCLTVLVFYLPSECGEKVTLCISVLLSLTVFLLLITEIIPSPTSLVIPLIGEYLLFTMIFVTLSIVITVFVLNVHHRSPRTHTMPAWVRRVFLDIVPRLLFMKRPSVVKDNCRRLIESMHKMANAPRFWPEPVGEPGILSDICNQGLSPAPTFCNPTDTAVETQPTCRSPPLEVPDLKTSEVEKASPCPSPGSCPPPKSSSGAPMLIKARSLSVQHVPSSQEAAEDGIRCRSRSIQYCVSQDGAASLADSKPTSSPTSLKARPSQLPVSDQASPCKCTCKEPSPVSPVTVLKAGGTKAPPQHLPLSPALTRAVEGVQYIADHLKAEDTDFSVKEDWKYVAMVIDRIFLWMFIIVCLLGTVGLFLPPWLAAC
Sequence (P12390 whole entry): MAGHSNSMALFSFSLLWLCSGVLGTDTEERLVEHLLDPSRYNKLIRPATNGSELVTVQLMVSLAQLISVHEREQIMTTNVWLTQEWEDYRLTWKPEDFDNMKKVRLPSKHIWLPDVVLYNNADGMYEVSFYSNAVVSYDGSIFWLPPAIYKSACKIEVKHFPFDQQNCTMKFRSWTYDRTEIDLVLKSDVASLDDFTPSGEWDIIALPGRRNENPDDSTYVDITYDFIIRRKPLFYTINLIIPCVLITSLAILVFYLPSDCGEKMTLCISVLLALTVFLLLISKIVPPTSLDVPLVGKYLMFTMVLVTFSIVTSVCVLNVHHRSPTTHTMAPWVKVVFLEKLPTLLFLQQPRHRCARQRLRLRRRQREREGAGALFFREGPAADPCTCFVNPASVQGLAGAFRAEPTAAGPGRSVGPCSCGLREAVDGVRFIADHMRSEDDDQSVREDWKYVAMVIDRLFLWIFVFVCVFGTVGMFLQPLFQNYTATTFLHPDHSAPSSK
Experiment: Displacement of [3H]epibatidine from alpha4beta2 nAChR in Sprague-Dawley rat cerebral cortex by beta counting
pKi: −log10 of the molar value.
property: pKi

{"molecule": "COc1ccc2c(c1)O[C@H]([C@@H]1CCCN1C)CO2", "reported": 4.77}
{"molecule": "CN1CCC[C@H]1[C@H]1COc2ccc(CO)cc2O1", "reported": 5.02}
{"molecule": "CC(C)Oc1ccc2c(c1)O[C@H]([C@@H]1CCCN1C)CO2", "reported": 5.03}
{"molecule": "CN1CCC[C@H]1[C@@H]1COc2ccc(O)cc2O1", "reported": 7.92}
{"molecule": "CN1CCC[C@H]1[C@H]1COc2ccc(-c3ccccc3)cc2O1", "reported": 5.51}
{"molecule": "Cc1ccc2c(c1)O[C@H]([C@@H]1CCCN1C)CO2", "reported": 4.38}
{"molecule": "CN1CCC[C@@H]1[C@@H]1COc2ccc(O)cc2O1", "reported": 5.52}
{"molecule": "CC(=O)c1ccc2c(c1)O[C@H]([C@@H]1CCCN1C)CO2 (racemic)", "reported": 4.01}
{"molecule": "Oc1ccc2c(c1)O[C@@H]([C@@H]1CCCN1)CO2", "reported": 5.92}
{"molecule": "Oc1ccc2c(c1)O[C@@H]([C@H]1CCCN1)CO2", "reported": 4.74}
{"molecule": "CN1CCC[C@H]1[C@@H]1COc2ccc(Br)cc2O1", "reported": 5.09}
